experimental.details: log D7.4 by shake-flask method, n-octanol/buffered aqueous solution
Assay type: physicochemical
stated.conditions: partitioning, n-octanol/water, pH 7.4, read-out: log D7.4 (proligand)
Protocol: Besides pKa values, lipophilicity is also an important pharmacological property of a drug, as it strongly influences the ability of the compound to pass through biological membranes. Therefore, distribution coefficients (log D7.4) were determined using the shake-flask method in an n-octanol-buffered aqueous solution at pH 7.4 (Table 1). […] The time-dependence of UV–vis absorption spectra was monitored for proligands HL2 at pH 7.4, 1.5 and 10.0 in 30% (v/v) DMSO/H2O, and for HL1 and HL3 at pH 7.4. […]
Known logD of a selection of compounds
readout.kind: logD

1) Cc1cc(NC(=S)NN=Cc2ncccc2N)cc(C)c1O 1.67
2) CC(=NNC(=S)Nc1cc(C)c(O)c(C)c1)c1ccccn1 2.1
3) Cc1cc(NC(=S)NN=Cc2ccccn2)cc(C)c1O 1.3

---

Known IC50 of a selection of compounds
System: Colo320
experimental.details: MTT cytotoxicity assay, Colo320
Assay type: cell-based
stated.conditions: Homo sapiens, COLO 320, 72 h of exposure

compound	IC50 / µM
Cc1cc(NC(=S)NN=Cc2ccccn2)cc(C)c1O	6.32
NC(=S)N/N=C/c1ncccc1N [triapine, 3-aminopyridine-2-carboxaldehyde TSC, reference compound]	4.21
CC(=NNc1nc2cc(C)c(O)c(C)c2s1)c1ccccn1	0.188

---

experimental.details: pKa by UV–vis titrations in 30% (v/v) DMSO/H2O
Type: physicochemical
stated.conditions: 30% (v/v) DMSO/H2O solvent mixture, I = 0.1 M (KCl), T = 25 °C, read-out: pKa (NNH)
Known pKa of a selection of compounds
readout.kind: pKa

compound	readout.kind	value.measured
CC(=NNC(=S)Nc1cc(C)c(O)c(C)c1)c1ccccn1 [HL^2]	pKa	11.1
Cc1cc(NC(=S)NN=Cc2ccccn2)cc(C)c1O [HL^1]	pKa	10.6

---

experimental.details: pKa by UV–vis titrations in 30% (v/v) DMSO/H2O
Type: physicochemical
stated.conditions: 30% (v/v) DMSO/H2O solvent mixture, I = 0.1 M (KCl), T = 25 °C, read-out: pKa (PyH^+)
Known pKa of a selection of compounds
readout.kind: pKa

1) Cc1cc(NC(=S)NN=Cc2ncccc2N)cc(C)c1O 3.95
2) Cc1cc(NC(=S)NN=Cc2ccccn2)cc(C)c1O 3.01
3) CC(=NNC(=S)Nc1cc(C)c(O)c(C)c1)c1ccccn1 3.59

---

Tested on: Colo320
experimental.details: MTT cytotoxicity assay, Colo320
Assay type: cell-based
stated.conditions: Homo sapiens, COLO 320, 72 h of exposure
Protocol: The in vitro cytotoxicity of the TSCs HL^1–HL^3, copper(II) complexes Cu(HL^1)Cl2, [Cu(L^2)Cl], and Cu(HL^3)Cl2, and oxidized TSCs HL^1a′, HL^1a″, and HL^2c′·CH3COOH was tested in the doxorubicin-sensitive Colo205 and the multidrug-resistant Colo320 human colonic adenocarcinoma cell lines as well as in normal human embryonal lung fibroblast cells (MRC-5) by the colorimetric MTT assay. […] 2.5. […] and the plates were further incubated at 37 °C overnight. The cell growth was determined using […] ELISA reader. […]
readout.kind: IC50

compound	target	value.measured
Cc1cc(NC(=S)NN=Cc2ncccc2N)cc(C)c1O [HL^3]	Colo320	> 100 µM
CC1=CC(=Nc2nnc(-c3ccccn3)s2)C=C(C)C1=O [HL^1a″]	Colo320	> 25 µM
Cc1cc(Nc2nnc(-c3ccccn3)s2)cc(C)c1O [HL^1a′]	Colo320	> 25 µM
CC(=NNC(=S)Nc1cc(C)c(O)c(C)c1)c1ccccn1 [HL^2]	Colo320	> 100 µM
